// endpoint IC50 / system UniProtKB Q16539
Sequence (Q16539 whole entry, looked up): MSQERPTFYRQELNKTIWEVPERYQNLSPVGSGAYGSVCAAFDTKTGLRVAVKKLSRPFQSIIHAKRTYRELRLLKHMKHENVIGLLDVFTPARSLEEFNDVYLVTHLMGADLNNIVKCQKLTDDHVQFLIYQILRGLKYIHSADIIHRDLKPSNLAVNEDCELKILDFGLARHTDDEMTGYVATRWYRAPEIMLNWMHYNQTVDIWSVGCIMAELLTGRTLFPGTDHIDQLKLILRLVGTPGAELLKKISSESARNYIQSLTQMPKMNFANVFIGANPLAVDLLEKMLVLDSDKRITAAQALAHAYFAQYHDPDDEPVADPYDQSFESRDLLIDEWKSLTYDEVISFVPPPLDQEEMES
measured quantity: IC50

| smiles notation | measured quantity | result |
| --- | --- | --- |
| Cc1ccc(C(=O)NC2CC2)cc1-c1ccc(C(=O)NCc2cccc(NS(C)(=O)=O)c2)cn1 | IC50 | < 10 µM |
| Cc1c(F)cc(C(=O)NC2CC2)cc1-c1ccc(C(=O)N(C)C2(C)CCCC2)cn1 | IC50 | < 10 µM |
| Cc1c(F)cc(C(=O)NC2CC2)cc1-c1ccc(C(=O)NCCC(F)(F)F)cn1 | IC50 | < 10 µM |

This collection of values is drawn from the Kinase Knowledgebase extract (Sharma et al. 2016).
